Molecular target: Voltage-gated inwardly rectifying potassium channel KCNH2 (Homo sapiens)
Sequence (Q12809 whole entry): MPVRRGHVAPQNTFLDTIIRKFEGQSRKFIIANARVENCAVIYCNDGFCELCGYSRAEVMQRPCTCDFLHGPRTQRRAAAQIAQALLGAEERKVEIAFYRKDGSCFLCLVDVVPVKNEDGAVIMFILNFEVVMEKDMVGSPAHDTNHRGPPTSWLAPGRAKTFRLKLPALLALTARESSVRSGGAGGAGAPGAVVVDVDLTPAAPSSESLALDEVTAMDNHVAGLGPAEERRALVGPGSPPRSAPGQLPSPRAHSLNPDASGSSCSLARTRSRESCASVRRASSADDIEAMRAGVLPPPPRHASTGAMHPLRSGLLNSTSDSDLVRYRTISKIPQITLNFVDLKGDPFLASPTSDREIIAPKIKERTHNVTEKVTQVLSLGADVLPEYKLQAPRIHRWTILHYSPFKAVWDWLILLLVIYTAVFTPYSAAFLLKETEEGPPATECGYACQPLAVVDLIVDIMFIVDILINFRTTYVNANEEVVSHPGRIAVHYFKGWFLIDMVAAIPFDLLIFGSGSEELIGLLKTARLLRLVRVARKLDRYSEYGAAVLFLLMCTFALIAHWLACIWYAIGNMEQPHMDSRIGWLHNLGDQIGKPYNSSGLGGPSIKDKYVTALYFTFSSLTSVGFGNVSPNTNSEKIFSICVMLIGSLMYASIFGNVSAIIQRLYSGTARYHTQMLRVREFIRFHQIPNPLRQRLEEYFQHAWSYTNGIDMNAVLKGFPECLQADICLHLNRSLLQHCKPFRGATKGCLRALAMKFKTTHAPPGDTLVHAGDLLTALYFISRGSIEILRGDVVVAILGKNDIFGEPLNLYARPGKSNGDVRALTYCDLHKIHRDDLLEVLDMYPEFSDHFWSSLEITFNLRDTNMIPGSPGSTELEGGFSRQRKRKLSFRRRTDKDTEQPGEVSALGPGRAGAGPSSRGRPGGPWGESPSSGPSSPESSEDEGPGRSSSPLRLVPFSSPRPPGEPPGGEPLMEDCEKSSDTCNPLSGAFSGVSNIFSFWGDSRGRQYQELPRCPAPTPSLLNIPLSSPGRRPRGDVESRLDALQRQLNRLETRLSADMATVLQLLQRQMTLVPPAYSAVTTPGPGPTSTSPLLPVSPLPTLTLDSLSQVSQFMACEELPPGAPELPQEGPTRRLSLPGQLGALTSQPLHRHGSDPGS
Assay: Inhibition of human ERG expressed in CHO-K1 cells by automated Qpatch clamp assay
readout_name: IC50

Example cases with answers are listed next.
smiles_str: COc1ccc(CN2CCN(C(=O)/C=C/c3ccc(Cl)cc3Cn3nnc(C)n3)CC2)nc1
IC50: 1.9 µM

smiles_str: Cc1nnn(Cc2cc(C(F)(F)F)ccc2/C=C/C(=O)N2CCC(c3noc(C)n3)CC2)n1
IC50: > 30 µM

smiles_str: Cc1nnn(Cc2cc(Cl)ccc2/C=C/C(=O)N2CCC(Cc3nnc(C)o3)CC2)n1
IC50: > 30 µM

smiles_str: Cc1nnn(Cc2cc(C(F)(F)F)ccc2/C=C/C(=O)N2CCC(C#N)CC2)n1
IC50: 25 µM

smiles_str: Cc1nnn(Cc2cc(Cl)ccc2/C=C/C(=O)N2CCN(Cc3coc(C)n3)CC2)n1
IC50: 23 µM

smiles_str: Cc1ncn(C2CCN(C(=O)/C=C/c3ccc(C(F)(F)F)cc3Cn3nnc(C)n3)CC2)n1
IC50: 25 µM

smiles_str: Cc1nnn(Cc2cc(Cl)ccc2/C=C/C(=O)N2CCN(Cc3cnn(C)c3)CC2)n1
IC50: 15 µM

smiles_str: Cc1nnn(Cc2cc(C(F)(F)F)ccc2/C=C/C(=O)N2CCC(Cl)CC2)n1
IC50: > 30 µM

smiles_str: Cc1cc(CN2CCN(C(=O)/C=C/c3ccc(Cl)cc3Cn3nnc(C)n3)CC2)on1
IC50: 12 µM

Next compound, please.
Returns the measured IC50 for the input compound. Input: Cc1nnn(Cc2cc(C(F)(F)F)ccc2/C=C/C(=O)N2CCC(c3nnc(C)o3)CC2)n1
23 µM

---

Experiment: Oral bioavailability in Sprague-Dawley rat at 10 mg/kg
Type: ADME, organism-based
Settings: in vivo
Measured bioavailability, listed per entry.
State just the number; it will be interpreted in %.

smiles_str: Cc1nnn(Cc2cc(C(F)(F)F)ccc2/C=C/C(=O)N2CCC(c3nnc(C)o3)CC2)n1
readout_name: bioavailability
observed_measurement: 94

Give the measured bioavailability of Cc1nnn(Cc2cc(Cl)ccc2/C=C/C(=O)N2CCN(Cc3coc(C)n3)CC2)n1 .
52

---

Assay: Metabolic stability in human liver microsomes assessed as intrinsic clearance
Format: ADME, Microsome
Conditions: read-out: CLH
Each record here notes measured microsomal CLint.
Answer in µL/min/mg, number only, no unit symbol.

Example compounds with recorded microsomal CLint:
smiles_str: Cc1nnn(Cc2cc(C(F)(F)F)ccc2/C=C/C(=O)N2CCC(c3noc(C)n3)CC2)n1
u: µL/min/mg
microsomal CLint: 19
//
smiles_str: Cc1nnn(Cc2cc(Cl)ccc2/C=C/C(=O)N2CCN(Cc3ccc(F)cc3)C[C@H]2C)n1
u: µL/min/mg
microsomal CLint: 230
//
smiles_str: Cc1ncn(C2CCN(C(=O)/C=C/c3ccc(C(F)(F)F)cc3Cn3nnc(C)n3)CC2)n1
u: µL/min/mg
microsomal CLint: 16

Reported microsomal CLint for Cc1nnn(Cc2cc(C(F)(F)F)ccc2/C=C/C(=O)N2CCC(c3nnc(C)o3)CC2)n1 : what is it?
13

---

Assay: Metabolic stability in rat liver microsomes assessed as intrinsic clearance
Format: ADME, Microsome
Conditions: read-out: CLH
readout_name: microsomal CLint (µL/min/mg)
Numeric only. Scale: µL/min/mg

The examples below pair each entry with its known result.
smiles_str: Cc1noc(C2CCN(C(=O)/C=C/c3ccc(C(F)(F)F)cc3Cn3nnc(C)n3)CC2)n1
readout_name: microsomal CLint
u: µL/min/mg
observed_measurement: 36
--
smiles_str: C[C@@H]1CN(Cc2ccc(F)cc2)CCN1C(=O)/C=C/c1ccc(Cl)cc1Cn1ncnn1
readout_name: microsomal CLint
u: µL/min/mg
observed_measurement: 730
--
smiles_str: Cc1nnn(Cc2cc(Cl)ccc2/C=C/C(=O)N2CCN(Cc3ccc(F)cc3)CC2)n1
readout_name: microsomal CLint
u: µL/min/mg
observed_measurement: 470
--
smiles_str: COc1ccc(CN2CCN(C(=O)/C=C/c3ccc(Cl)cc3Cn3nnc(C)n3)CC2)cc1
readout_name: microsomal CLint
u: µL/min/mg
observed_measurement: 520

Switching to the query record.
Which microsomal CLint reading was recorded for the compound Cc1ncn(C2CCN(C(=O)/C=C/c3ccc(C(F)(F)F)cc3Cn3nnc(C)n3)CC2)n1 ?
15
